- tgt: Mineralocorticoid receptor (Homo sapiens)
- Sequence (P08235 whole entry): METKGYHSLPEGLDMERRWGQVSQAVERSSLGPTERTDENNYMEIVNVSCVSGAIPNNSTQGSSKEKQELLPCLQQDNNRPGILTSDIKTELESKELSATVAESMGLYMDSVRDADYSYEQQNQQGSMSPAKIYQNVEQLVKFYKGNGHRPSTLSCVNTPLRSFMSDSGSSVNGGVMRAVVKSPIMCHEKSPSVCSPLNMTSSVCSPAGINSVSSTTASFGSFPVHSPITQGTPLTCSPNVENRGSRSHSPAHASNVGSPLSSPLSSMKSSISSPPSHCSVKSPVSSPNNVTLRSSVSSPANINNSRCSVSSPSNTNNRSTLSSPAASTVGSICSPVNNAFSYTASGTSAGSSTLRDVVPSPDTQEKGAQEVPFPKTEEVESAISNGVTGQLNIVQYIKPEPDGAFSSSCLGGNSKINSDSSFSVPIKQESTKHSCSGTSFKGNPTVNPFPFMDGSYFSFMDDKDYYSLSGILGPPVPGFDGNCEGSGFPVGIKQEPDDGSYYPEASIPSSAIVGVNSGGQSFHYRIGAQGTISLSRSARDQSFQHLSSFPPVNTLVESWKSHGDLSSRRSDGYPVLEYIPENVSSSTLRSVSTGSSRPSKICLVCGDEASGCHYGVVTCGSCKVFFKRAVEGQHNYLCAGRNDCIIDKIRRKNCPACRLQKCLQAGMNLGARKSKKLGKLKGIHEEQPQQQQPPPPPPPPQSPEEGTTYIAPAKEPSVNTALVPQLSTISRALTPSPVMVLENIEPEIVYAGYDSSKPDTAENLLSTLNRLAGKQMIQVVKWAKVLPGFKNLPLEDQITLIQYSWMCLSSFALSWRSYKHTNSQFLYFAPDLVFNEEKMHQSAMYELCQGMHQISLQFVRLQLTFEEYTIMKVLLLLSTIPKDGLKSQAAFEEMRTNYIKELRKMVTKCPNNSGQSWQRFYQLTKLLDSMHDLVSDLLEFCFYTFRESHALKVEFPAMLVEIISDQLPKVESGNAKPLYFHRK
// merged dataset of IC50 values, system = Mineralocorticoid receptor (Homo sapiens), multiple refs
Threshold-based label: IC50 under 400 nM gives Y, IC50 not under 400 nM gives N.

Input CC(C)(CC(O)(Cc1cc2ccncc2[nH]1)C(F)(F)F)c1cc(-c2ccccc2)ccc1O (centres undefined) ; condition: IC50 strictly below 400 nM. Does it hold?
Y

Is IC50 of CCC(Cc1cc(C)c(OC)c(C)c1)NS(=O)(=O)c1c(C)cc(C)cc1C (centres undefined) strictly below 400 nM?
N

Item C[C@H](c1ccccc1)N1C(=O)O[C@](Cc2ccccc2)(C(=O)NCc2cccc3cnccc23)C1=O : IC50 beneath 400 nM, strictly?
N

Is 400 nM strictly greater than the molecule's reported IC50? molecule: CC(Cc1c[nH]c2ccccc12)NS(=O)(=O)c1c(Cl)cc(Cl)cc1Cl (centres undefined)
Y

IC50 strictly < 400 nM for this molecule? CCCCC1=C(C(=O)OC)C(c2ccccc2Cl)C(C#N)=C(C)N1 (centres undefined)
Y

Is it true that IC50 reported for COC(=O)C1=C(C)NC(C)=C(C(=O)OC(C)(C)C)C1c1cccc(C#N)c1 (centres undefined) is less than 400 nM?
N

Field: below-cutoff. Rule: recorded IC50 strictly less than 400 nM. Subject: CC(C)(CC(O)(Cn1ccc(=O)c2ccccc21)C(F)(F)F)c1cc(F)ccc1O (centres undefined)
N

IC50 under 400 nM? Item: CCC(Cc1cc(C)ccc1C)NS(=O)(=O)c1c(C)cc(C)cc1C (centres undefined)
Y
